# experiment description: Pharmacokinetic assessments in patient plasma
# Type: in vivo, human
# conditions used: human, plasma, oral, t1/2, everolimus with vatalanib, day 29, mean ± SD
measured quantity: half-life (h)

smiles string: CO[C@H]1C[C@@H]2CC[C@@H](C)[C@@](O)(O2)C(=O)C(=O)N2CCCC[C@H]2C(=O)O[C@H]([C@H](C)C[C@@H]2CC[C@@H](OCCO)[C@H](OC)C2)CC(=O)[C@H](C)/C=C(\C)[C@@H](O)[C@@H](OC)C(=O)[C@H](C)C[C@H](C)/C=C/C=C/C=C/1C
measured quantity: half-life
recorded measurement: 14

---

# experiment description: Pharmacokinetic assessments in patient plasma
# Assay type: in vivo, human
# conditions used: human, plasma, oral, AUC, everolimus with vatalanib, day 29, 24-hour dosing interval, mean ± SD

molecule: CO[C@H]1C[C@@H]2CC[C@@H](C)[C@@](O)(O2)C(=O)C(=O)N2CCCC[C@H]2C(=O)O[C@H]([C@H](C)C[C@@H]2CC[C@@H](OCCO)[C@H](OC)C2)CC(=O)[C@H](C)/C=C(\C)[C@@H](O)[C@@H](OC)C(=O)[C@H](C)C[C@H](C)/C=C/C=C/C=C/1C [Everolimus]
AUC, µg·h/mL: 0.377

Where these numbers come from: paper PMC4623321
